Value source: patent US12091385B2

# Test system: Human pancreatic cancer cell CFPAC-1
# test.description: CCK-8 cell proliferation assay, CFPAC-1
# Type: cell-based
# assay.conditions: CFPAC-1 cells, 72 hrs with drug, CCK-8, OD 450 nm
experimental.endpoint: IC50 (nM)

Use the examples below as a reference point.
| molecule | assayed.system | experimental.endpoint | quantitative.readout |
| --- | --- | --- | --- |
| N#CN=C(NCCCCCN1CCN(C(=O)c2ccco2)CC1)Nc1ccnc(F)c1 | Human pancreatic cancer cell CFPAC-1 | IC50 | 38 |
| N#CN=C(NCCCCCCC1CCN(C(=O)c2ccco2)C1)Nc1cccnc1 (stereo not drawn) | Human pancreatic cancer cell CFPAC-1 | IC50 | 34 |
| N#CN=C(NCCCCCN1CCN(C(=O)c2occc2F)CC1)Nc1ccncc1 | Human pancreatic cancer cell CFPAC-1 | IC50 | 39 |
| N#CN=C(NCCCCCN1CCN(C(=O)C2CCCS2)CC1)Nc1ccncc1 (stereo not drawn) | Human pancreatic cancer cell CFPAC-1 | IC50 | 58 |
| N#CN=C(NCCCCCN1CCN(C(=O)C2Cc3ccccc3O2)CC1)Nc1ccncc1 (stereo not drawn) | Human pancreatic cancer cell CFPAC-1 | IC50 | 55 |

1: N#CN=C(NCCCCCC1CCN(C(=O)C2Cc3ccccc3O2)C1)Nc1ccncc1 (stereo not drawn)
2: COc1cccc(OC)c1C(=O)N1CCC(CCCCCNC(=NC#N)Nc2ccncc2)C1 (stereo not drawn)
Request: Please indicate which has the smaller reported IC50: 1 , or 2 . Response format: the label of the selected entry.
Result: 2
(2: 27 nM, 1: 42 nM)
